From: ChEMBL document CHEMBL1961873

target: Mitogen-activated protein kinase 9 (Homo sapiens) (UniProt P45984); conditions: at 0.1 µM;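 also: values are mean inhibition of JNK2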
Sequence (P45984 whole entry, looked up): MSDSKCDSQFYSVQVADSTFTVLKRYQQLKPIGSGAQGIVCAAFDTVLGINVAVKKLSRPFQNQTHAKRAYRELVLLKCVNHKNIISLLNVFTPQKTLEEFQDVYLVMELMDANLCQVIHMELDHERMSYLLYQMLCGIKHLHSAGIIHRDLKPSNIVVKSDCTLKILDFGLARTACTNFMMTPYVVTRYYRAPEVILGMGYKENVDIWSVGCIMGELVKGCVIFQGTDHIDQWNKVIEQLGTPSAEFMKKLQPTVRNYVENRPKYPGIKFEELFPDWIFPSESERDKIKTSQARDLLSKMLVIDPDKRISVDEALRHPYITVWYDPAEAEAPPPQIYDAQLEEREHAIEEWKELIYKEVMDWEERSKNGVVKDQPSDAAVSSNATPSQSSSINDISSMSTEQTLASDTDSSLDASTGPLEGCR
Measure: inhibition (%)

Compound | Target system | Value unit | Recorded value
c1ccc(-c2n[nH]cc2-c2ccnc(-c3ccc(OCCN4CCOCC4)cc3)c2)nc1 | Mitogen-activated protein kinase 9 (Homo sapiens) (UniProt P45984) | % | 0.62
Clc1ccc(CNc2nccc(-c3cnn4ncccc34)n2)cc1 | Mitogen-activated protein kinase 9 (Homo sapiens) (UniProt P45984) | % | 3.52
Cc1ccc(C(=O)NC(C)C)cc1-c1ccc(C(=O)NCC2CC2)cc1 | Mitogen-activated protein kinase 9 (Homo sapiens) (UniProt P45984) | % | -1.51
COc1cccc(/C=N/Nc2ncnc3c2cnn3-c2cccc(OC)c2)c1 | Mitogen-activated protein kinase 9 (Homo sapiens) (UniProt P45984) | % | 3.29
Fc1ccc(-c2ncn(CCCN3CCOCC3)c2-c2ccncc2)cc1 | Mitogen-activated protein kinase 9 (Homo sapiens) (UniProt P45984) | % | 2.43
COc1cc2ncn(-c3cc(OCc4cccs4)c(C(N)=O)s3)c2cc1OC | Mitogen-activated protein kinase 9 (Homo sapiens) (UniProt P45984) | % | 0.6
CN(C)CCCNc1nccc(-c2c(-c3ccc(F)cc3)nn3cc(C(F)(F)F)ccc23)n1 | Mitogen-activated protein kinase 9 (Homo sapiens) (UniProt P45984) | % | 2.73
Cc1ccc(NC(=O)c2ccoc2)cc1-c1ccc(C(=O)NCC2CC2)cc1 | Mitogen-activated protein kinase 9 (Homo sapiens) (UniProt P45984) | % | 3.16
COc1ccc2cc(-c3c(-c4ccncc4)nc(-c4ccc([S+](C)[O-])cc4C)n3C)ccc2c1 (stereo not given) | Mitogen-activated protein kinase 9 (Homo sapiens) (UniProt P45984) | % | 0.79
C#Cc1cccc(Nc2ncnc3ccc(OCCCCNCCS(C)(=O)=O)cc23)c1 | Mitogen-activated protein kinase 9 (Homo sapiens) (UniProt P45984) | % | 3.91
NC(=O)c1cc(-c2ccc(F)cc2)cc(-c2ccncc2)c1N | Mitogen-activated protein kinase 9 (Homo sapiens) (UniProt P45984) | % | 3.69
CCC(=O)Nc1ccc(C)c(-c2ccc(C(=O)NCC3CC3)cc2)c1 | Mitogen-activated protein kinase 9 (Homo sapiens) (UniProt P45984) | % | 2.92
CCS(=O)(=O)c1ccc(OC)c(Nc2ncc(-c3ccccc3Cl)o2)c1 | Mitogen-activated protein kinase 9 (Homo sapiens) (UniProt P45984) | % | 1.42
COC(=O)Nc1nc2ccc(Sc3ccc(NC(=O)Nc4cc(C(F)(F)F)ccc4F)cc3)cc2[nH]1 | Mitogen-activated protein kinase 9 (Homo sapiens) (UniProt P45984) | % | 33.9
NS(=O)(=O)c1ccc(Nc2cc(-c3ccc(O)c(F)c3)n[nH]2)cc1 | Mitogen-activated protein kinase 9 (Homo sapiens) (UniProt P45984) | % | -1.59
COc1ccc(C2=C(N3CCc4ccccc43)C(=O)NC2=O)cc1 | Mitogen-activated protein kinase 9 (Homo sapiens) (UniProt P45984) | % | 3.78
COc1cc2ncn(-c3cc(OCCc4ccccc4)c(C(N)=O)s3)c2cc1OC | Mitogen-activated protein kinase 9 (Homo sapiens) (UniProt P45984) | % | 4.17
Nc1nccc(-c2c(-c3ccc(F)cc3)ncn2C2CCC(O)CC2)n1 (stereo not given) | Mitogen-activated protein kinase 9 (Homo sapiens) (UniProt P45984) | % | 9.42
O=C1Nc2ccccc2/C1=C/Nc1ccc(-n2cncn2)cc1 | Mitogen-activated protein kinase 9 (Homo sapiens) (UniProt P45984) | % | 5.47
NS(=O)(=O)c1ccc(N/N=C2\C(=O)Nc3ccc(C(=O)NCCCn4ccnc4)cc32)cc1 | Mitogen-activated protein kinase 9 (Homo sapiens) (UniProt P45984) | % | 6.1

====

biological target: Tyrosine-protein kinase Yes (Homo sapiens); details: at 1 µM;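 also: values are mean percent inhibition of YES kinase activity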

Compound | inhibition (%)
Fc1ccc(-c2c(-c3ccncc3)nc3n2CCS3)cc1 | 5.33
CCc1ccc(Oc2nccc(-c3c(-c4ccc(F)cc4)ncn3C3CCNCC3)n2)cc1 | 7.31
Clc1ccc(CNc2nccc(-c3cnn4ncccc34)n2)cc1 | -1.15
NS(=O)(=O)c1ccc(N/N=C2\C(=O)Nc3ccc(-c4cnco4)cc32)cc1 | 12.1
COc1cc(Nc2ncc(-c3ccccc3)o2)cc(OC)c1OC | 46.6
COc1cccc(/C=N/Nc2ncnc3c2cnn3-c2cccc(OC)c2)c1 | 8.43
Fc1ccc(-c2ncn(C3CCNCC3)c2-c2ccnc(Oc3ccc4c(c3)OCO4)n2)cc1 | 3.52
COc1ccc2cc(-c3c(-c4ccncc4)nc(-c4ccc([S+](C)[O-])cc4C)n3C)ccc2c1 (centres undefined) | 21.3
c1ccc(Oc2ccc(Nc3ncc(-c4ccccc4)o3)cc2)cc1 | -0.25
C[C@@H](Oc1cc(-n2cnc3ccc(OC4CCN(C)CC4)cc32)sc1C(N)=O)c1ccccc1Cl | 3.04
c1ccc(-c2n[nH]cc2-c2ccnc(-c3ccc(OCCN4CCOCC4)cc3)c2)nc1 | 2.34
CN(C)c1ccc2c(c1)/C(=C/Nc1ccc(S(N)(=O)=O)cc1)C(=O)N2 | 14.3
COc1cc(C)c(N(C)C(=O)CN(C)C)cc1Nc1nc(Nc2cccc(F)c2C(N)=O)c2cc[nH]c2n1 | -3.38
O=C(NCC1CC1)c1ccc(-c2cccc(C(=O)NC3CC3)c2)cc1 | -2.38

====

target: Tyrosine-protein kinase Tec (Homo sapiens) (UniProt P42680); conditions: at 0.1 µM
Sequence (P42680 whole entry): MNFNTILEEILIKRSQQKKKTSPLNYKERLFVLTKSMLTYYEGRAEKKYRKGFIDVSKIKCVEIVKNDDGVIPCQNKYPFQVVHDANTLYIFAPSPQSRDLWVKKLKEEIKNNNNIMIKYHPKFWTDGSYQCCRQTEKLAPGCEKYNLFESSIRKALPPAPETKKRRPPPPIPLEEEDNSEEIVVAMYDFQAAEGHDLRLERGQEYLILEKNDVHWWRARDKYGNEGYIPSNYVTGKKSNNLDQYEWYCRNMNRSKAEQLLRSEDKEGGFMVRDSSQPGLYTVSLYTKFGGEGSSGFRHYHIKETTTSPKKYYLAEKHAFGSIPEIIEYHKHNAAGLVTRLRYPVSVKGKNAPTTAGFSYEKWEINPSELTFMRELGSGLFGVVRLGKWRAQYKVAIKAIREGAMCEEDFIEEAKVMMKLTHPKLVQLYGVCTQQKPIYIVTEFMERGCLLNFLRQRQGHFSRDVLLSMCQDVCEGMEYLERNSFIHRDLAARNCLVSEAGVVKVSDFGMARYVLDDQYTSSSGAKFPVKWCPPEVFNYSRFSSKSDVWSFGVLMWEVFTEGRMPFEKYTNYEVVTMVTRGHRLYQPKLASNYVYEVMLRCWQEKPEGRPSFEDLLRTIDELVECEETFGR
Description: GSK_PKIS: TEC mean inhibition at 0.1 uM [Nanosyn]
# maps each entry to its inhibition
Measure: inhibition (%)

Smi | Value unit | Recorded value
O=C1Nc2ccc(I)cc2C1=Cc1cc(Br)c(O)c(Br)c1 | % | 7.04
COc1cccc(-n2cnc3c(N/N=C/c4ccncc4)ncnc32)c1 | % | -2.49
NC(=O)c1cc(-c2ccc(F)cc2)cc(-c2ccncc2)c1N | % | 2.88
NC(=O)c1ccc(Oc2nccc(-c3c(-c4ccc(F)cc4)ncn3C3CCNCC3)n2)cc1 | % | 8.39
CN(c1ccc(NC(=O)Nc2c(Cl)cccc2Cl)cc1)c1ccnc(Nc2cccc(CS(C)(=O)=O)c2)n1 | % | 10.1
C#Cc1cccc(Nc2ncnc3ccc(OCCCCNCCS(C)(=O)=O)cc23)c1 | % | 5.96
Cc1ccc(C(=O)NC2CCC2)cc1-c1ccc(C(=O)NCC2CC2)cc1 | % | 3.37
CCS(=O)(=O)c1ccc(OC)c(Nc2ncc(-c3cccc(-c4ccccc4F)c3)o2)c1 | % | 2.94
Fc1ccc(-c2ncn(C3CCNCC3)c2-c2ccnc(Oc3ccc(Oc4ccccc4)cc3)n2)cc1 | % | 7.61
COc1cc2ncn(-c3cc(OCCc4ccccc4)c(C(N)=O)s3)c2cc1OC | % | 2.52

====

target: Serine/threonine-protein kinase PAK 1 (Homo sapiens); details: at 1 µM;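 also: reported values are mean percent inhibition of PAK1 activity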
Reported values of inhibition for individual entries
Measure: inhibition (%)

Molecule | Recorded value
CS(=O)(=O)CCNCc1cc(-c2cc3c(Nc4ccc(OCc5cccc(F)c5)c(Cl)c4)ncnc3s2)cs1 | 9.09
Clc1ccc(CNc2nccc(-c3cnn4ncccc34)n2)cc1 | -0.13
COc1ccc2cc(-c3c(-c4ccncc4)nc(-c4ccc([S+](C)[O-])cc4C)n3C)ccc2c1 (stereo not drawn) | -0.86

====

biological target: Tyrosine-protein kinase Lyn (Homo sapiens) (UniProt P07948); conditions: at 1 µM;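 also: kinase tested as its LYN B splice variant, values given as mean percent inhibition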
Sequence (P07948 2-512 limits assumed): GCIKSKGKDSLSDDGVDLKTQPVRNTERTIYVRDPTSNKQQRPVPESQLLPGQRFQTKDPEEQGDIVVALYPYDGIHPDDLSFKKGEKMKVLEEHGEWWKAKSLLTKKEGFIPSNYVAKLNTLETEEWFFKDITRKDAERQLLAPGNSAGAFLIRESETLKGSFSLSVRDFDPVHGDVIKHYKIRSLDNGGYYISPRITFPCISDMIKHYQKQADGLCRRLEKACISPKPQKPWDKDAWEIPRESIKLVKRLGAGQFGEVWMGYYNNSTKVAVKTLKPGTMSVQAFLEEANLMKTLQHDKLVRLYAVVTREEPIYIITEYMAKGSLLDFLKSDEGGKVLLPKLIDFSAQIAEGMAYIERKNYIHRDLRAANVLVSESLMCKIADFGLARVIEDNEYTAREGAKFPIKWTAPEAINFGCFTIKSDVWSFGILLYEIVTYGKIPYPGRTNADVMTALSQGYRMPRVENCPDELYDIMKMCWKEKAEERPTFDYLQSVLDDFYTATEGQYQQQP
Description: GSK_PKIS: LYN B (splice variant) mean inhibition at 1 uM [Nanosyn]
Would you mind labelling by inhibition? At or over 3% is True, under is False.

Smi | Target system | Assigned class
O=C(Nc1n[nH]c2cc(-c3cc(F)ccc3F)ccc12)C1CC1 | Tyrosine-protein kinase Lyn (Homo sapiens) (UniProt P07948) | False
O=C1NC(=O)C(c2cccc(Cl)c2)=C1Nc1ccc(Cl)c(C(=O)O)c1 | Tyrosine-protein kinase Lyn (Homo sapiens) (UniProt P07948) | True
Cc1ccc(C(=O)NC2CCC2)cc1-c1ccc(C(=O)NCC2CC2)cc1 | Tyrosine-protein kinase Lyn (Homo sapiens) (UniProt P07948) | False
C#Cc1cccc(Nc2ncnc3ccc(OCCCCNCCS(C)(=O)=O)cc23)c1 | Tyrosine-protein kinase Lyn (Homo sapiens) (UniProt P07948) | True
O=C(Nc1n[nH]c2nc(-c3ccco3)ccc12)C1CC1 | Tyrosine-protein kinase Lyn (Homo sapiens) (UniProt P07948) | True
O=C(NCC1CC1)c1ccc(-c2cccc(C(=O)NC3CC3)c2)cc1 | Tyrosine-protein kinase Lyn (Homo sapiens) (UniProt P07948) | False
NS(=O)(=O)c1ccc(Nc2cc(-c3ccc(O)c(F)c3)n[nH]2)cc1 | Tyrosine-protein kinase Lyn (Homo sapiens) (UniProt P07948) | True
c1ccc(Oc2ccc(Nc3ncc(-c4ccccc4)o3)cc2)cc1 | Tyrosine-protein kinase Lyn (Homo sapiens) (UniProt P07948) | False

====

tested on: Proto-oncogene tyrosine-protein kinase receptor Ret (Homo sapiens), P07949 [Y791F]; conditions: at 1 µM
Sequence (P07949 whole entry Y791F): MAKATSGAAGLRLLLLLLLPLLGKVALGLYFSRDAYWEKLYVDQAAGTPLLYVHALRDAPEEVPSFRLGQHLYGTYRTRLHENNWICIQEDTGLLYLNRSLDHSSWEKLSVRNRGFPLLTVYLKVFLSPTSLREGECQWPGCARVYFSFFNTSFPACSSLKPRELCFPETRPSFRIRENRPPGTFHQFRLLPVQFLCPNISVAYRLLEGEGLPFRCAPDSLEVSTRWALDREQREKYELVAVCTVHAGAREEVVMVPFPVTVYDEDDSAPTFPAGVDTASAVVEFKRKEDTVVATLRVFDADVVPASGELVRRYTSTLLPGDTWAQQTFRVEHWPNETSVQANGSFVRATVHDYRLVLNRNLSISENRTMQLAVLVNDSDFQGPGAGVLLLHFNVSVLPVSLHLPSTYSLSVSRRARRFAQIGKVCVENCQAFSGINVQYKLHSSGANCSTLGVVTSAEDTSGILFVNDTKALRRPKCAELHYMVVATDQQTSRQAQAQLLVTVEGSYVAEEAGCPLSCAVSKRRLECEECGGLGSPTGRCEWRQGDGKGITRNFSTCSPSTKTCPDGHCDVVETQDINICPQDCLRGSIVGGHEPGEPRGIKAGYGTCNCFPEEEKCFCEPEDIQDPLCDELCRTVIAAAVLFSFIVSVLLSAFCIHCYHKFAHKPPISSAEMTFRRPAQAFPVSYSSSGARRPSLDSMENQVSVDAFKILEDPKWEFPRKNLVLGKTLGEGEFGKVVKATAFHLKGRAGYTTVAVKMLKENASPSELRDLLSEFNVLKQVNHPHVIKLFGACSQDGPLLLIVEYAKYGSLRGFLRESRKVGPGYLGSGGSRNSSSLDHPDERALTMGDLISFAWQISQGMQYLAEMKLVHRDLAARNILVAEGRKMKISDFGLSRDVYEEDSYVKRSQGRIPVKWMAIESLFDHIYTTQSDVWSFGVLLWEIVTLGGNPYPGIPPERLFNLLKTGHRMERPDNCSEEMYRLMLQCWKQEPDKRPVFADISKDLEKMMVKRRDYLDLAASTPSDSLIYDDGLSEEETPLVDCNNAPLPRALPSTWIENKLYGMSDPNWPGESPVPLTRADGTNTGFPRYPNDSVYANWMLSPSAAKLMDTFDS
Measure: inhibition (%)

Smi | Recorded value
C/C(Nc1ccc(S(N)(=O)=O)cc1)=C1/C(=O)Nc2ccccc21 | 40.3
CS(=O)(=O)CCNCc1ccc(-c2ccc3ncnc(Nc4ccc(OCc5ccccc5)c(Br)c4)c3c2)o1 | 15.1
COc1cc(Nc2ncc3c(C)nc(-c4cccc(Oc5ccccc5)c4)n3n2)cc(OC)c1OC | 12.9
CCC(=O)Nc1ccc(C)c(-c2ccc(C(=O)NCC3CC3)cc2)c1 | 6.48
FC(F)(F)c1cccc(Nc2nccc(-c3cnn4nc(-c5ccccc5)ccc34)n2)c1 | 9
CCc1ccc(Oc2nccc(-c3c(-c4ccc(F)cc4)ncn3C3CCNCC3)n2)cc1 | 8.79
CCS(=O)(=O)c1ccc(OC)c(Nc2ncc(-c3ccccc3Cl)o2)c1 | 9.6
C[C@@H](Oc1cc(-n2cnc3ccc(OCC4CCN(C)CC4)cc32)sc1C(N)=O)c1ccccc1Cl | 20.1
O=C1NC(=O)C(c2cccc(Cl)c2)=C1Nc1ccc(Cl)c(C(=O)O)c1 | 13.8
